// data source = patent US20060069132A1

system: smallflower umbrella sedge; assay: Test C flooded paddy test; type: in vivo, Cyperus difformis; details: 62 g ai/ha, scale 0 to 100 (0 no effect, 100 complete control)
value-type: Sedge, Umbrella plant response rating

molecule: CCn1nc(C(C)(C)C)cc1C(=O)Nc1cccc(S(=O)(=O)C(F)(F)F)c1 [Compound 134]
value-type: Sedge, Umbrella plant response rating
meas-value: 55
--
molecule: CCc1nn(C(C)(C)C)cc1C(=O)Nc1cccc(C(C)=NO)c1 [Compound 188]
value-type: Sedge, Umbrella plant response rating
meas-value: 30
--
molecule: CCn1nc(C(C)(C)C)cc1C(=O)Nc1cccc(C(=O)NOC)c1 [Compound 67]
value-type: Sedge, Umbrella plant response rating
meas-value: 50
--
molecule: CCn1nc(C(C)(C)C)cc1C(=O)Nc1cccc(C(=O)OC)c1 [Compound 81]
value-type: Sedge, Umbrella plant response rating
meas-value: 70
--
molecule: CC(=NO)c1cccc(NC(=O)c2cc(C(C)(C)C)nn2C)c1 [Compound 102]
value-type: Sedge, Umbrella plant response rating
meas-value: 50
--
molecule: CCn1nc(C(C)(C)C)cc1C(=O)Nc1cccc(C(=O)NC2CC2)n1 [Compound 146]
value-type: Sedge, Umbrella plant response rating
meas-value: 60
--
molecule: CCc1nc(C(C)(C)C)sc1C(=O)Nc1cccc(C(=O)NCC2CC2)n1 [Compound 215]
value-type: Sedge, Umbrella plant response rating
meas-value: 40
--
molecule: C=CCn1nc(C(C)(C)C)cc1C(=O)Nc1cccc(C(C)=NO)c1 [Compound 117]
value-type: Sedge, Umbrella plant response rating
meas-value: 40
--
molecule: CCc1cn(C(C)(C)C)nc1C(=O)Nc1cc(C(=O)N(C)C)ccn1 [Compound 232]
value-type: Sedge, Umbrella plant response rating
meas-value: 0

###

system: barnyardgrass; assay: Test B pre-/postemergence herbicide test; format: in vivo, Echinochloa crus-galli; settings: 125 g ai/ha; 0 is no effect, 100 is complete control; preemergence
Define the label as met when Plant response rating (0 to 100 scale), Barnyardgrass is strictly less than 10 and as not met in all remaining cases.

compound: C=CCN(CC=C)C(=O)c1ccc(F)c(NC(=O)c2nn(C(C)(C)C)nc2CC)c1 [Compound 387]
category-label: met
//
compound: C#CCNC(=O)c1cccc(NC(=O)c2nn(C(C)C)nc2CC)c1 [Compound 379]
category-label: met
//
compound: CCOC(=O)c1ccnc(NC(=O)c2nn(C(C)(C)C)nc2C)c1 [Compound 421]
category-label: met
//
compound: CCNC(=O)c1ccc(F)c(N(C(C)=O)C(=O)c2cc(C(C)(C)C)nn2CC)c1 [Compound 399]
category-label: not met
//
compound: CCc1nn(C(C)(C)CC)nc1C(=O)Nc1cccc(C(=O)N(C)C)c1 [Compound 372]
category-label: not met
//
compound: C=CCOc1cccc(NC(=O)c2cc(C(C)(C)C)nn2CC)c1 [Compound 412]
category-label: not met
//
compound: CCNC(=S)c1ccc(F)c(NC(=O)c2cc(C(C)(C)C)nn2CC)c1 [Compound 349]
category-label: not met
//
compound: C=CCN(CC=C)C(=O)c1cccc(NC(=O)c2nn(C(C)C)nc2CC)c1 [Compound 390]
category-label: met
//
compound: C#CCNC(=O)c1cccc(NC(=O)c2nn(C(C)(C)C)nc2CC)c1 [Compound 380]
category-label: not met
